Values compiled from paper PMC5955861.

tested on: MOLM-1; assay: alamarBlue cell proliferation assay; assay type: cell-based

compound: CNc1nc(-c2nc3ccc(N4CCN(C)CC4)cc3n2Cc2ccccc2)cn2c(C)nnc12 [BI 894999]
testSystem: MOLM-1
EC50 (µM): 0.0534

###

tested on: MM primary patient samples; assay: proliferation of ex vivo-treated primary patient samples; type: cell-based; details: Homo sapiens, read-out: BI 894999 EC50, MM Patient 8
pEC50: −log10 of the molar value.

structure: CNc1nc(-c2nc3ccc(N4CCN(C)CC4)cc3n2Cc2ccccc2)cn2c(C)nnc12
testSystem: MM primary patient samples
pEC50: 8.52

###

tested on: SU-DHL6; experiment: alamarBlue cell proliferation assay; format: cell-based; settings: Homo sapiens, SU-DHL-6

compound: CNc1nc(-c2nc3ccc(N4CCN(C)CC4)cc3n2Cc2ccccc2)cn2c(C)nnc12 [BI 894999]
unitTag: µM
EC50: 0.0134

###

system: AML primary patient samples; assay: proliferation of ex vivo-treated primary patient samples; type: cell-based; conditions: Homo sapiens, read-out: BI 894999 EC50, AML Patient 2; risk group Intermediate
pEC50: −log10 of the molar value.
observationType: pEC50

molecule: CNc1nc(-c2nc3ccc(N4CCN(C)CC4)cc3n2Cc2ccccc2)cn2c(C)nnc12 [BI 894999]
measuredValue: > 9.00

###

tested on: JEKO-1; assay: alamarBlue cell proliferation assay; format: cell-based; settings: Homo sapiens

structure: CNc1nc(-c2nc3ccc(N4CCN(C)CC4)cc3n2Cc2ccccc2)cn2c(C)nnc12
EC50 [nM]: 7.9

###

system: DERL-2; assay: alamarBlue cell proliferation assay; format: cell-based; conditions: T-cell
observationType: EC50 (nM)

structure: CNc1nc(-c2nc3ccc(N4CCN(C)CC4)cc3n2Cc2ccccc2)cn2c(C)nnc12
unitTag: nM
measuredValue: 10.6

###

system: HT; assay: alamarBlue cell proliferation assay; assay type: cell-based; details: Homo sapiens
pEC50: −log10 of the molar value.

structure: CNc1nc(-c2nc3ccc(N4CCN(C)CC4)cc3n2Cc2ccccc2)cn2c(C)nnc12
testSystem: HT
pEC50: 7.94

###

test system: J.RT3-T3.5; experiment: alamarBlue cell proliferation assay; format: cell-based; settings: Homo sapiens
pEC50: −log10 of the molar value.

structure: CNc1nc(-c2nc3ccc(N4CCN(C)CC4)cc3n2Cc2ccccc2)cn2c(C)nnc12
testSystem: J.RT3-T3.5
pEC50: 7.96

###

biological target: BRD2/3/4 and BRDT; test: BROMOscan ligand-binding site-directed competition assay; conditions: BRD2/3/4 and BRDT; 24 bromodomains tested

structure: CNc1nc(-c2nc3ccc(N4CCN(C)CC4)cc3n2Cc2ccccc2)cn2c(C)nnc12
Kd: 0.49 to 1.6 nM

###

tested on: U266 B1; assay: alamarBlue cell proliferation assay; assay type: cell-based; conditions: Homo sapiens, U-266
observationType: EC50 (nM)

structure: CNc1nc(-c2nc3ccc(N4CCN(C)CC4)cc3n2Cc2ccccc2)cn2c(C)nnc12
measuredValue: 14.3

###

system: AML primary patient samples; assay: proliferation of ex vivo-treated primary patient samples; type: cell-based; conditions: Homo sapiens, read-out: BI 894999 EC50, AML Patient 16

structure: CNc1nc(-c2nc3ccc(N4CCN(C)CC4)cc3n2Cc2ccccc2)cn2c(C)nnc12
testSystem: AML primary patient samples
EC50: < 1 nM

###

system: MV-4-11B; assay: alamarBlue cell proliferation assay; format: cell-based, human; details: Homo sapiens
pEC50: −log10 of the molar value.

structure: CNc1nc(-c2nc3ccc(N4CCN(C)CC4)cc3n2Cc2ccccc2)cn2c(C)nnc12
pEC50: 8.17

###

system: AML primary patient samples; test: proliferation of ex vivo-treated primary patient samples; assay type: cell-based; settings: Homo sapiens, read-out: BI 894999 EC50, AML Patient 7; risk group Intermediate
pEC50: −log10 of the molar value.

structure: CNc1nc(-c2nc3ccc(N4CCN(C)CC4)cc3n2Cc2ccccc2)cn2c(C)nnc12
pEC50: 7.92

###

system: RPMI 8226; assay: alamarBlue cell proliferation assay; type: cell-based; conditions: Homo sapiens

structure: CNc1nc(-c2nc3ccc(N4CCN(C)CC4)cc3n2Cc2ccccc2)cn2c(C)nnc12
unitTag: nM
EC50: 25

###

test system: Pfeiffer; test: alamarBlue cell proliferation assay; format: cell-based; settings: Homo sapiens
observationType: EC50 (nM)

structure: CNc1nc(-c2nc3ccc(N4CCN(C)CC4)cc3n2Cc2ccccc2)cn2c(C)nnc12
testSystem: Pfeiffer
observationType: EC50
unitTag: nM
measuredValue: 10.7

###

system: AML primary patient samples; assay: proliferation of ex vivo-treated primary patient samples; assay type: cell-based; conditions: Homo sapiens, read-out: BI 894999 EC50, AML Patient 1; risk group Intermediate
pEC50: −log10 of the molar value.

compound: CNc1nc(-c2nc3ccc(N4CCN(C)CC4)cc3n2Cc2ccccc2)cn2c(C)nnc12 [BI 894999]
testSystem: AML primary patient samples
pEC50: 8.40

###

tested on: AML primary patient samples; experiment: proliferation of ex vivo-treated primary patient samples; assay type: cell-based; settings: Homo sapiens, read-out: BI 894999 EC50, AML Patient 3; risk group Intermediate
observationType: EC50 (nM)

molecule: CNc1nc(-c2nc3ccc(N4CCN(C)CC4)cc3n2Cc2ccccc2)cn2c(C)nnc12 [BI 894999]
measuredValue: 5

###

system: RL; experiment: alamarBlue cell proliferation assay; type: cell-based; details: Homo sapiens
pEC50: −log10 of the molar value.

structure: CNc1nc(-c2nc3ccc(N4CCN(C)CC4)cc3n2Cc2ccccc2)cn2c(C)nnc12
testSystem: RL
pEC50: 7.74

###

test system: MM primary patient samples; assay: proliferation of ex vivo-treated primary patient samples; type: cell-based; settings: Homo sapiens, read-out: BI 894999 EC50, MM Patient 13
observationType: EC50

compound: CNc1nc(-c2nc3ccc(N4CCN(C)CC4)cc3n2Cc2ccccc2)cn2c(C)nnc12 [BI 894999]
measuredValue: 2 nM

###

test system: AML primary patient samples; experiment: proliferation of ex vivo-treated primary patient samples; format: cell-based; details: Homo sapiens, read-out: BI 894999 EC50, AML Patient 11; risk group High

structure: CNc1nc(-c2nc3ccc(N4CCN(C)CC4)cc3n2Cc2ccccc2)cn2c(C)nnc12
unitTag: nM
EC50: 18

###

test system: AML primary patient samples; assay: proliferation of ex vivo-treated primary patient samples; type: cell-based; conditions: Homo sapiens, 16/20 AML patient samples
observationType: EC50

structure: CNc1nc(-c2nc3ccc(N4CCN(C)CC4)cc3n2Cc2ccccc2)cn2c(C)nnc12
measuredValue: < 0.01 µM

###

test system: AML primary patient samples; assay: proliferation of ex vivo-treated primary patient samples; assay type: cell-based; details: Homo sapiens, read-out: BI 894999 EC50, AML Patient 13; risk group Intermediate
pEC50: −log10 of the molar value.

structure: CNc1nc(-c2nc3ccc(N4CCN(C)CC4)cc3n2Cc2ccccc2)cn2c(C)nnc12
pEC50: > 9.00

###

tested on: AML primary patient samples; test: proliferation of ex vivo-treated primary patient samples; assay type: cell-based; details: Homo sapiens, read-out: BI 894999 EC50, AML Patient 20; risk group Intermediate

structure: CNc1nc(-c2nc3ccc(N4CCN(C)CC4)cc3n2Cc2ccccc2)cn2c(C)nnc12
EC50: < 1 nM

###

tested on: HuT78; assay: alamarBlue cell proliferation assay; type: cell-based; settings: Homo sapiens

structure: CNc1nc(-c2nc3ccc(N4CCN(C)CC4)cc3n2Cc2ccccc2)cn2c(C)nnc12
EC50: 7.1 nM

###

system: DOHH-2; experiment: alamarBlue cell proliferation assay; type: cell-based; conditions: Homo sapiens

molecule: CNc1nc(-c2nc3ccc(N4CCN(C)CC4)cc3n2Cc2ccccc2)cn2c(C)nnc12 [BI 894999]
EC50 [nM]: 6.2
